Listed binders paired with reported pKd
- systemTested: T1, human IL-13 wild type (human, UniProt P35225 35-146)
- T1 construct: also called h IL-13; h IL-13 wt
- T1 sequence (P35225 other isoform, or with tags, fused parts or gaps limits assumed): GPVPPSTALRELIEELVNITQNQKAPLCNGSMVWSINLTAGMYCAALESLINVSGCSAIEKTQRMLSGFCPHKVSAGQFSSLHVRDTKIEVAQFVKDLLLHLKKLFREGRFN
- assayDetails: SPR (Biacore), mAb captured, IL-13 as analyte
Scale note: pKd = -log10(concentration in M).

In the examples that follow, each entry is paired with its recorded pKd.
- binder: "4A8 (antibody, V domains shown) VH: EVQLQQSGAEFVRPGALVKLSCKASGFNIKDYYMYWVKQRPEQGLEWIGRIDPENGNTIYDPKFQGKASITGDTSSNTAYLQLSSLTSEDTAVYYCARYAYYGPFDYWGQGTTLTVSS VL: QAVVTQESALTTSPGETVTLTCRSSIGTVTTNNYANWVQEKPDHLFTGLIGSTNNRAPGVPARFSGSLIGDKAALTITGAQTEDEAIYFCALWYSNHWVFGGGTKLTVLG"
  pKd: 10.05
- binder: "29G5 (antibody, V domains shown) VH: QVTLKESGPGILQPSQTLSLTCSFSGFSLSTSDMGVDWIRQPSGKDLEWLAHIWWDDVKRYNPALKSRLTISKDTSSSQVFLMLASVDTADTATYYCARIVSSGYIYYALDYWGQGTSVTVSS VL: DIQMTQTASSLSASLGDRVTISCRASQDIRNYLNWYQRKPDGTVKLLIYYTSRLHSGVPSRFSGSGSGTDYSLTISNLEQEDIATYFCQQGNTLPLTFGGGTKLEIKR"
  pKd: 9.69

Let's switch to this binder now.
## Task Output pKd of 5G1 (antibody, V domains shown) VH: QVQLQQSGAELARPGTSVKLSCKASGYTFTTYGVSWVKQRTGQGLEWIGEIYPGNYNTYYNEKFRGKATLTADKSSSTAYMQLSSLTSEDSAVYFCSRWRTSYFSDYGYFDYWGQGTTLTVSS VL: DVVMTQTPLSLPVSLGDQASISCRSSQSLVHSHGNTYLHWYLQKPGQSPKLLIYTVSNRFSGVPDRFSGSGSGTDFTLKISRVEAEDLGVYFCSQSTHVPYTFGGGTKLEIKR
## Result 11.06
